Data origin, for the record: PubChem BioAssay (NCATS)

Molecular target: Phospholipid hydroperoxide glutathione peroxidase GPX4 (Homo sapiens) (UniProt P36969)
Sequence (P36969 whole entry, looked up): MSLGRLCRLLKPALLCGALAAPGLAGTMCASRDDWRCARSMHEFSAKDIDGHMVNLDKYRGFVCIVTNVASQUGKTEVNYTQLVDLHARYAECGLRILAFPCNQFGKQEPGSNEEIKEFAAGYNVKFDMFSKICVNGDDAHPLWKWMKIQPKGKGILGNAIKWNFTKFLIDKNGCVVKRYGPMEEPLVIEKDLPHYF
Assay: Primary qHTS Assay for Inhibitors of Recombinant Selenoprotein Glutathione Peroxidase 4 (GPX4) (AID 1845192); note: nearly all actives have a fitted effect of over 65% in size
Details: recombinant GPX4, GR-coupled NADPH fluorescence, 15 min; series mostly up to 50 µM
Inconclusive results are not listed. Calls of active or inactive are those of the source. Calls come from the whole dose curve; as a rule, active = well fitted inhibition curve with a large enough effect; inconclusive = small, poorly fitted or top-dose-only effect; inactive = flat fitted curve, though single readings scatter.
Select the matching outcome among 1 (yes) (active), 0 (no) (inactive)

Nc1ccn(C2CO[C@H](CO)O2)c(=O)n1 (stereo partly specified): 0 (no)
Cc1cc(C(=O)NOCCO)c(Nc2ccc(I)cc2F)n(C)c1=O: 0 (no)
COc1ccc(Nc2nccc(NCCO)n2)cc1: 0 (no)
CN(CC(=O)N(Cc1ccc(C2CCCCC2)cc1)c1ccc(C(=O)O)c(O)c1)S(=O)(=O)c1c(F)c(F)c(F)c(F)c1F: 1 (yes)
CCN(C(=O)c1c(O)c2c(Cl)cccc2n(C)c1=O)c1ccccc1: 0 (no)

What did this assay record as the result for Oc1ccc(-c2ccc(-c3cc(Nc4cccc(CNC5CC5)c4)n[nH]3)cc2)c(O)c1 ?
0 (no)

* * *

Test: Quantitative High-Throughput drug screen in 47 multiple myeloma cell lines against the NCATS MIPE library collection: Karpas620_DSMZ cell viability assay (AID 1918959); note: potency is the fitted concentration of half-maximal effect; nearly all actives have a fitted effect of over 30% in size
Conditions: Karpas620 myeloma viability, CellTiter-Glo ATP luminescence, 48 h; series mostly up to 45.8 µM
Records with an inconclusive call do not appear. The source made the active and inactive calls. Calls come from the whole dose curve; as a rule, active = well fitted cell-killing curve with a large enough effect; inconclusive = small, poorly fitted or top-dose-only effect, or effect the other way; inactive = no such curve, though single readings can be large or run the other way.
MEASURED_PARAMETER: Potency

// lookup Potency for FC(F)(F)c1ccc(Nc2nc3ccc(Oc4ccnc(-c5ncc(C(F)(F)F)[nH]5)c4)cc3[nH]2)cc1
26.4 µM (active)

Name the recorded Potency for COc1ccc2c(c1OC)C(=O)OC2[C@H]1c2c(cc3c(c2OC)OCO3)CCN1C (some centres undefined) .
0.0264 µM (active)

Which Potency is reported for this molecule? CC(C)N1[N]C(=C2C=c3cc(O)ccc3=N2)c2c(N)ncnc21
5.9 µM (active)

* * *

Test: High-throughput drug toxicity screening in the BPDCN cell line Gen2.2 (AID 1224824);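 note: cells exposed to compounds for 48 h before reading; 100% = DMSO and 0% = bortezomib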
Settings: Gen2.2 BPDCN cells; at 45.8 µM (top of the series) unless noted
Recorded measurements of cell viability, % of control (lower = more cytotoxic), one per entry

C=C(C)[C@@H]1CC[C@]2(C)CC[C@]3(C)[C@H](CC[C@@H]4[C@@]5(C)CC[C@H](O)C(C)(C)[C@H]5CC[C@]43C)[C@@H]12: 162%
CC(=O)[C@]1(O)Cc2c(O)c3c(c(O)c2[C@@H](O[C@H]2C[C@H](N)[C@@H](O)[C@H](C)O2)C1)C(=O)c1ccccc1C3=O: 6.08%
C[C@H]1O[C@H](O[C@H]2[C@H](O)[C@@H](O)[C@@H](O[C@H]3[C@H](O)[C@@H](O)C(O)O[C@H]3CO)O[C@H]2CO)[C@H](O)[C@@H](O)[C@H]1N[C@H]1C=C(CO)[C@@H](O)[C@H](O)[C@@H]1O (stereo partly specified): 193%

For CCOC(=O)N1CCN([N+]([O-])=NOc2ccc([N+](=O)[O-])cc2C#N)CC1 , what is its reported cell viability, % of control (lower = more cytotoxic)?
17.2%

Given the molecule CN(C)c1ccc2cc(C(=O)N[C@@H](CCCN=C(N)CCl)C(=O)NCc3ccccc3)ccc2c1 , what is its reported cell viability, % of control (lower = more cytotoxic)?
1.99%

I'd like to know its cell viability, % of control (lower = more cytotoxic). The molecule in question is CC[C@@]1([C@@H]2O[C@@H]([C@H]3O[C@@](O)(CO)[C@H](C)C[C@H]3C)C[C@H]2C)CC[C@H]([C@]2(C)CC[C@]3(C[C@H](O)[C@@H](C)[C@@H]([C@@H](C)[C@@H](OC)[C@H](C)C(=O)O)O3)O2)O1
27.8% [at 23.2 µM]
